Target: Cytochrome P450 2D6 (Homo sapiens) (UniProt P10635)
Sequence (P10635 whole entry, looked up): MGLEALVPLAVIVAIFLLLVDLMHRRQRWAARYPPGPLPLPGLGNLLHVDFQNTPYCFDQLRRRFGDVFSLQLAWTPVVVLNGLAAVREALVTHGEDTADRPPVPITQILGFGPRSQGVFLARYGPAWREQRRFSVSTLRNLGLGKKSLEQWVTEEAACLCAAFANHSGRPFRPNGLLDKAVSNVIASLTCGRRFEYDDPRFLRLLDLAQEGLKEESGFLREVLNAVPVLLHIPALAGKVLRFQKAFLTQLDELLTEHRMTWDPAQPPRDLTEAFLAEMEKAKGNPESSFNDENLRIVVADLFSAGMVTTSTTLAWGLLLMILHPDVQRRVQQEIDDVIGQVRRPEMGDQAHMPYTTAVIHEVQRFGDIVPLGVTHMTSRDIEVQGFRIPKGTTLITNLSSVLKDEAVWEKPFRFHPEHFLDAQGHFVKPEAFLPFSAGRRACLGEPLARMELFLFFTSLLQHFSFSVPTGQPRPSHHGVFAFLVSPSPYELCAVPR
Experiment: qHTS Assay for Inhibitors and Substrates of Cytochrome P450 2D6 (AID 891); further: nearly all actives have a fitted effect of over 60% in size
Settings: recombinant CYP2D6, luciferin-ME EGE luminescence; series mostly up to 11.4 µM
Results filed as inconclusive are left out. Calls of active or inactive are those of the source. The call rests on the fitted dose curve; in most records, active means well fitted inhibition curve with a large enough effect; inconclusive means small, poorly fitted or top-dose-only effect; inactive means no such curve, though single readings can be large or run the other way.
Labels: active, inactive

- compound: "COc1ccc(/C=C/N(CCc2ccc(OC)c(OC)c2)C(=O)c2ccccn2)cc1"
  category: "inactive"
- compound: "COC(=O)NC(/C=C/c1ccco1)[C@@]1(C(=O)OC)CCCC1=O (some centres undefined)"
  category: "inactive"
- compound: "COC(=O)C/C=C\\[C@@H](C)[C@@H](/C=N\\O[C@@H](C)CN1CCCc2nc(C)c(C)cc21)NS(=O)(=O)c1ccc(C)cc1"
  category: "active"
- compound: "CC(=O)OC[C@@H]1O[C@H](C/C=N\\O[C@@H]2O[C@H](COC(C)=O)[C@@H](OC(C)=O)[C@H](OC(C)=O)[C@H]2OC(C)=O)C=C[C@@H]1OC(C)=O"
  category: "active"
